Origin of measurements: the supplement of paper PMC4466140

Give SPOT peptide array binding signal intensity for every item shown.
# study_system: ScCyk3
# experimental_details: SPOT peptide array binding signal intensity (averaged, normalized) (arbitrary units (background-subtracted, floor 0; scale differs between SH3 domains)); higher = stronger binding of the SH3 domain to the peptide

Data request: Find the recorded SPOT peptide array binding signal intensity belonging to LPPPPPPPPPPPLPQ and report it.
Data returned: 0.5

Data request: Find the recorded SPOT peptide array binding signal intensity belonging to RTRRRPPPPPIPSTQ and report it.
Data returned: 19

Data request: Find the recorded SPOT peptide array binding signal intensity belonging to HPRFVSPRIPSRIVK and report it.
Data returned: 12

Data request: Find the recorded SPOT peptide array binding signal intensity belonging to SKAKRPKFLLDLQIK and report it.
Data returned: 51

Data request: Find the recorded SPOT peptide array binding signal intensity belonging to QTREPNEPPPPSPAM and report it.
Data returned: ≤ 0

Data request: Find the recorded SPOT peptide array binding signal intensity belonging to RRARRQMGIPTISQV and report it.
Data returned: 53.5

Data request: Find the recorded SPOT peptide array binding signal intensity belonging to MFLISPPASPPPEFD and report it.
Data returned: 2

Data request: Find the recorded SPOT peptide array binding signal intensity belonging to LYKRKPILLPDPKPL and report it.
Data returned: ≤ 0

Data request: Find the recorded SPOT peptide array binding signal intensity belonging to NFKRLLPRDPSEKSS and report it.
Data returned: 105

Data request: Find the recorded SPOT peptide array binding signal intensity belonging to MKRSRPSRSIPYTTP and report it.
Data returned: 37

Data request: Find the recorded SPOT peptide array binding signal intensity belonging to SRYRRPLTLLLLKPF and report it.
Data returned: 28

Data request: Find the recorded SPOT peptide array binding signal intensity belonging to GTIARPLFLVVLFFI and report it.
Data returned: 50

Data request: Find the recorded SPOT peptide array binding signal intensity belonging to RKNRAPPQRPRFNRD and report it.
Data returned: 138

Data request: Find the recorded SPOT peptide array binding signal intensity belonging to VGFRLALKFPSRITG and report it.
Data returned: 137

Data request: Find the recorded SPOT peptide array binding signal intensity belonging to PKRRAPPPVPKKPSS and report it.
Data returned: 6

Data request: Find the recorded SPOT peptide array binding signal intensity belonging to IRMPSNPALPKKLLN and report it.
Data returned: 6
